test: Half life in Sprague-Dawley rat at 5 mg/kg, iv; assay type: ADME, organism-based; design: dose 5 mg/kg, route intravenous; settings: in vivo
endpoint: half-life (h)
One number for each entry, in h.

Input line: Name the recorded half-life of the item `COCCOc1cc2ncnc(Nc3c(Cl)ccc4c3OCO4)c2cc1NC(=O)[C@@H]1CCCN1` in your answer.
Output line: 6.1

----------
assay: Tmax in Sprague-Dawley rat at 10 mg/kg, po; type: ADME, organism-based; design: dose 10 mg/kg, route oral; settings: in vivo
endpoint: Tmax (h)
Numbers only, in h.

Input line: Name the recorded Tmax of the item `COCCOc1cc2ncnc(Nc3c(Cl)ccc4c3OCO4)c2cc1NC(=O)[C@@H]1CCCN1` in your answer.
Output line: 4

Values from ChEMBL document CHEMBL1153429
